experimental system: Fes (UniProt P07332)
Sequence (P07332 whole entry, looked up): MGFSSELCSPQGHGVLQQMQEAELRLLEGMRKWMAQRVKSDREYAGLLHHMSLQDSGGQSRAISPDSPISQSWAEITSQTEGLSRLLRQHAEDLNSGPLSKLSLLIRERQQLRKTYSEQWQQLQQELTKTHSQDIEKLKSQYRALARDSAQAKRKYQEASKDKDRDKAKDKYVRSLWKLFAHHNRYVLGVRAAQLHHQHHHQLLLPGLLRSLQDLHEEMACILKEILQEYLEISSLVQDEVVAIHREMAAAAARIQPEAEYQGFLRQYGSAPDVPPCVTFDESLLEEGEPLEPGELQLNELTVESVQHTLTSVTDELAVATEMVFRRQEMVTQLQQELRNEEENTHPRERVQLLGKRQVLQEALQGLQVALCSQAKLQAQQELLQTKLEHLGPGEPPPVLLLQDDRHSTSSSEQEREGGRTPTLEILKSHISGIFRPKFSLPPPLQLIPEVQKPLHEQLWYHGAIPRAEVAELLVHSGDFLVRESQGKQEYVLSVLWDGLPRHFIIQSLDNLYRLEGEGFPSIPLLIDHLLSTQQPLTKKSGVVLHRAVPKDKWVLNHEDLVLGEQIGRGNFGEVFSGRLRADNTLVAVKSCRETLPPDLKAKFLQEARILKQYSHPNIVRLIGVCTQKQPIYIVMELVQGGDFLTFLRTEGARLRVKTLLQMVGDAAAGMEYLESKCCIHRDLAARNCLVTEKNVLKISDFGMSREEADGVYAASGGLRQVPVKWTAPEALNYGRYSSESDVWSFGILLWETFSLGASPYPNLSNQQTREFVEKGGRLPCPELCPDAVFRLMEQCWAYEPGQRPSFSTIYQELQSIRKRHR
procedure details: phosphorylation enrichment, bacterial display (enrichment ratio); higher = better substrate or ligand; peptides without Tyr show the background
metric: phosphorylation enrichment
// no unit string in output, number only

sequence chain	result
DLRGIYQKLVI	1.4
RRFSSYSQMEN [PKP1_Y120]	2.57
LLILEYAKFGS [RET_Y806_V804L_YF]	1.52
HYGNNYTDVLQ [MACC1_Y803_R804T]	1.76
LDFNEYFRDLN [HPRT1_Y198_YF]	1.15
SLYPGYNFRYA [P2RX7_Y291]	0.685

The sequence MKALGYFAVVT [OPA1_Y498] showed phosphorylation enrichment equal to 1.53

The sequence LDLSFYPTSSS [EMD_Y182_YF] showed phosphorylation enrichment equal to 1.77

The sequence LGSNGYKKLLK [SEPSECS_Y334] showed phosphorylation enrichment equal to 0.841

The sequence GMEIVYVYVKK [DNAI2_Y5] showed phosphorylation enrichment equal to 1.23

The sequence ECKLLYSQKEG [PTPN11_Y263_R265Q] showed phosphorylation enrichment equal to 1.08

----------
In this section, each of the sequences is paired with its reported phosphorylation enrichment.
experimental system: MERTK (UniProt Q12866)
Sequence (Q12866 whole entry, looked up): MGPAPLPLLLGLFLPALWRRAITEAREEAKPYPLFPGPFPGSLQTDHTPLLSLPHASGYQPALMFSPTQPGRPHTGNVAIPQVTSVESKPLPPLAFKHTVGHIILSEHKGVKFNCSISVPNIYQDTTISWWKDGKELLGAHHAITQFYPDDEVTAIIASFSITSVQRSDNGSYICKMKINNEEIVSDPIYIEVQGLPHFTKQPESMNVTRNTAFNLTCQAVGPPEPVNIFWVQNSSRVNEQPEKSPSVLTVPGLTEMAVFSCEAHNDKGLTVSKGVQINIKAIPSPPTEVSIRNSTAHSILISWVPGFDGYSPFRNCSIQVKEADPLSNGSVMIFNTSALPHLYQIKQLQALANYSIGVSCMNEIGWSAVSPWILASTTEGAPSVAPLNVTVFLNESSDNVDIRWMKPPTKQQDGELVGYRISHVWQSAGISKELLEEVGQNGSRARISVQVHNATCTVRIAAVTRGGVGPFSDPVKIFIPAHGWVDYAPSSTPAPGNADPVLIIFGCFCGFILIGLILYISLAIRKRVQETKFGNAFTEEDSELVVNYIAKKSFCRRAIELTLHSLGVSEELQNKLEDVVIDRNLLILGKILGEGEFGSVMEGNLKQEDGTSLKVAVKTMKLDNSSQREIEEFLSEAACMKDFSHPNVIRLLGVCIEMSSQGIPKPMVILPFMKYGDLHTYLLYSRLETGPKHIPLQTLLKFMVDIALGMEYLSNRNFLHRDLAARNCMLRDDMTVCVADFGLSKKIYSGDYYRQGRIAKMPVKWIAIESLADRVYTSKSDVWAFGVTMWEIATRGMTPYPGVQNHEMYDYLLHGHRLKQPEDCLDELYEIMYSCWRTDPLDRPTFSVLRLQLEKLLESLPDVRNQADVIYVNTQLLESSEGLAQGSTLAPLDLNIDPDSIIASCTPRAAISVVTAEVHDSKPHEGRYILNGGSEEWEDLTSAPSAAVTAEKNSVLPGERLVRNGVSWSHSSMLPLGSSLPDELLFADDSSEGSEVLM
procedure details: phosphorylation enrichment, bacterial display (enrichment ratio); higher = better substrate or ligand; peptides without Tyr show the background
// no unit string in output, number only

Sample records with phosphorylation enrichment:
sequence chain	phosphorylation enrichment
FGSVMYEFVGK [SLC18A1_Y251]	11.1
CNPLRYPTIMI [OR6K6_Y160]	0.482

Then this sequence:
The sequence PIQLFYTRRNT [GHR_Y86] showed phosphorylation enrichment equal to 0.691

----------
experimental system: Hck (UniProt P08631)
Sequence (P08631 whole entry, looked up): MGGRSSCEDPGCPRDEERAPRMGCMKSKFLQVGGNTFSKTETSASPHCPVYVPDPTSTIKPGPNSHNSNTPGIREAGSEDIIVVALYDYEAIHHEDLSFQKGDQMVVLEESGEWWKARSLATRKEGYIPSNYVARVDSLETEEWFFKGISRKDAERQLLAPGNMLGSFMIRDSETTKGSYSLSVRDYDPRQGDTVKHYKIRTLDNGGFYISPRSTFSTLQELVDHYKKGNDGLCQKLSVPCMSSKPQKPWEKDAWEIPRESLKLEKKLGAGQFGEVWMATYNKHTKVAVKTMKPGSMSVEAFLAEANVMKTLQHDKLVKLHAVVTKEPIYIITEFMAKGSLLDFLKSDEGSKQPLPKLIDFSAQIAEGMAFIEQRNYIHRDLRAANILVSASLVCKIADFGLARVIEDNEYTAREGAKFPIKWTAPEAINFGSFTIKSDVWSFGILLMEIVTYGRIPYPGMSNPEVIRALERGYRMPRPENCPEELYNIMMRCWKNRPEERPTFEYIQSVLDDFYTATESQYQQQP
procedure details: phosphorylation enrichment, bacterial display (enrichment ratio); higher = better substrate or ligand; peptides without Tyr show the background
If the reported phosphorylation enrichment equals or exceeds 0.5, assign true (1). If not, assign false (0).

sequence chain	assigned label
EESSHYSTEKE [ADAR_Y587]	true (1)
ALSDGYWVVSN [TPP1_Y459]	true (1)
DAVAVYHGKIS [SH2D1A_Y7]	true (1)
RQGKDYVGAIP [KDR_Y951]	false (0)
PGVNYYFQVSA	true (1)
RRIHSYRGHLC [VHL_Y112_W117C]	true (1)

Exam item: decide whether the reported phosphorylation enrichment for DDDPEYRKFLE [UPF3B_Y160] is at least 0.5.
true (1)

Exam item: decide whether the reported phosphorylation enrichment for KKKKQYKDKYL [CASK_Y708] is at least 0.5.
true (1)

Exam item: decide whether the reported phosphorylation enrichment for DDLTDYLMKIL [ACTA1_Y190_R185D] is at least 0.5.
true (1)

Exam item: decide whether the reported phosphorylation enrichment for EVEPRYVVLYD [ERCC4_Y577] is at least 0.5.
true (1)

Exam item: decide whether the reported phosphorylation enrichment for RAYSWYQHQRA [NDST1_Y714] is at least 0.5.
true (1)

Exam item: decide whether the reported phosphorylation enrichment for TVQVAYFTMMM [SPATA17_Y83_YF] is at least 0.5.
true (1)

Exam item: decide whether the reported phosphorylation enrichment for YAFQLYDLDPD [CHP2_Y123_R127P] is at least 0.5.
true (1)

----------
In this section, each of the sequences is paired with its reported SH2 binding enrichment.
experimental system: Grb2 SH2 (UniProt P62993)
Sequence (P62993 whole entry, looked up): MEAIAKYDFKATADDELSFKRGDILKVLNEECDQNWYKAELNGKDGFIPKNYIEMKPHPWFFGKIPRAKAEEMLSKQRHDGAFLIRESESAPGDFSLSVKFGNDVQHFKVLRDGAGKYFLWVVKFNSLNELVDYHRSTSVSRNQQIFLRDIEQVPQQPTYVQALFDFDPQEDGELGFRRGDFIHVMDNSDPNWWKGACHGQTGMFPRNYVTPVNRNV
procedure details: SH2 binding enrichment of the phosphorylated peptide, bacterial display (enrichment ratio); higher = better substrate or ligand; peptides without Tyr show the background
// no unit string in output, number only

sequence chain	metric	result
PLFSKYWPNHI [GREB1L_Y1560_R1558S_YF]	SH2 binding enrichment	0.917

The sequence EVEPRYVVLYD [ERCC4_Y577] showed SH2 binding enrichment equal to 0.894

The sequence FVTSMYNEILM [TRPV1_Y310] showed SH2 binding enrichment equal to 1

The sequence ENFDDYMKEVG [FABP4_Y20] showed SH2 binding enrichment equal to 1.04

The sequence AAGGRYYGLVG [HARS1_Y363_D364Y] showed SH2 binding enrichment equal to 0.938

----------
experimental system: FGFR1 (UniProt P11362)
Sequence (P11362 whole entry, looked up): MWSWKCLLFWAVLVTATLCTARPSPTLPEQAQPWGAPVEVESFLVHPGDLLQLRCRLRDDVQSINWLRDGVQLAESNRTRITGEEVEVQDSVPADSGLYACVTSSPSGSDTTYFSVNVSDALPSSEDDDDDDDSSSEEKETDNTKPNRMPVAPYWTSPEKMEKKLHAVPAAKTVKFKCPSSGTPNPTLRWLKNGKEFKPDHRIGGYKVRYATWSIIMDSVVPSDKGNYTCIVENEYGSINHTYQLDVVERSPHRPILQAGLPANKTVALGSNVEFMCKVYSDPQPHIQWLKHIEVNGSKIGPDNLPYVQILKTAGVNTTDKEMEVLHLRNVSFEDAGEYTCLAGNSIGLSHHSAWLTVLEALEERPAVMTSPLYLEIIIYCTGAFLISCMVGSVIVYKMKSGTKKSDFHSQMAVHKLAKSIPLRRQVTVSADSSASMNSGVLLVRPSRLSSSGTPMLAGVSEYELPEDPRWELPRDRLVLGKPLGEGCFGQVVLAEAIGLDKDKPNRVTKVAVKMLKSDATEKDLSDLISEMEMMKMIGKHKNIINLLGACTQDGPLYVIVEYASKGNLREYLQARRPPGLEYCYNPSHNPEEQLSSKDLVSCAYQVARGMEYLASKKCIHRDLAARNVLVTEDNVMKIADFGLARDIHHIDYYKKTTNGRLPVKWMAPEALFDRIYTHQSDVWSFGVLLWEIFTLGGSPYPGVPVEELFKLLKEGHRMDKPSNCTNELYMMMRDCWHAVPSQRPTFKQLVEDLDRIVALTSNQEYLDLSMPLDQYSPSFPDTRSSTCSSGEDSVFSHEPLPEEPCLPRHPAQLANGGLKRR
procedure details: phosphorylation enrichment, bacterial display (enrichment ratio); higher = better substrate or ligand; peptides without Tyr show the background
In this section, each of the sequences is paired with its reported phosphorylation enrichment.
// no unit string in output, number only

Sample records with phosphorylation enrichment:
sequence chain	phosphorylation enrichment
ETKEDYEKILV [ANXA1_Y335_G333E]	0.509
GAMGHYVLAER [HFE_Y342]	0.38
GVVVPYEPPEV [TP53_Y220_S215G]	0.39
TSSAIYMNLAS [GATAD2B_Y317]	3

Then this sequence:
Lab note: sequence SWVVPYEPPEV [TP53_Y220_V216W] tested on FGFR1 (UniProt P11362); recorded phosphorylation enrichment was 0.599

----------
In this section, each of the sequences is paired with its reported phosphorylation enrichment.
experimental system: MERTK (UniProt Q12866)
procedure details: phosphorylation enrichment, bacterial display (enrichment ratio); higher = better substrate or ligand; peptides without Tyr show the background
// no unit string in output, number only

sequence chain	phosphorylation enrichment
DGQSVYKLTDF [TBK1_Y153]	0.471
VGTKQYMAPEV [ACVRL1_Y375_R374Q]	0.469
LLLLFCVVRYC [MPZ_Y177_Y177C]	2.94
YSMGCYEIYLG [HMGCL_Y198_S201Y]	4.69
ITLPIYTKGSE [ANK2_Y1455_E1458G]	0.481

Lab note: sequence TSSSSYFDEPV [ARFGAP3_Y356] tested on MERTK (UniProt Q12866); recorded phosphorylation enrichment was 0.421

Lab note: sequence WVYNHYRCIIW [BRCA2_Y2624_W2626C] tested on MERTK (UniProt Q12866); recorded phosphorylation enrichment was 0.659

Lab note: sequence PAIYTYDEYKK [COL8A2_Y648_T645I] tested on MERTK (UniProt Q12866); recorded phosphorylation enrichment was 13.5

Lab note: sequence LRWREYQRQDF [PRKRIP1_Y90_R87W_YF] tested on MERTK (UniProt Q12866); recorded phosphorylation enrichment was 1.69

Lab note: sequence TSESSYYKSLN [NGEF_Y288_A286S] tested on MERTK (UniProt Q12866); recorded phosphorylation enrichment was 0.564

Lab note: sequence ASMAKYYASGI [ACADSB_Y372_E376G] tested on MERTK (UniProt Q12866); recorded phosphorylation enrichment was 0.518

Lab note: sequence GDFSRYDEGSG [RECQL5_Y484] tested on MERTK (UniProt Q12866); recorded phosphorylation enrichment was 0.513

Lab note: sequence CTTIHYNYMCD [TP53_Y234_N239D] tested on MERTK (UniProt Q12866); recorded phosphorylation enrichment was 0.426

Lab note: sequence NFFEFYVDDPP [GCHFR_Y48_YF] tested on MERTK (UniProt Q12866); recorded phosphorylation enrichment was 0.531

Lab note: sequence CTTIHYNYMYN [TP53_Y234_C238Y] tested on MERTK (UniProt Q12866); recorded phosphorylation enrichment was 1

Lab note: sequence ANNEYYFQVCA tested on MERTK (UniProt Q12866); recorded phosphorylation enrichment was 0.73

Lab note: sequence WPQKLYNNFVN [MYO5C_Y526_L522P] tested on MERTK (UniProt Q12866); recorded phosphorylation enrichment was 0.505

Lab note: sequence PSQRRYLYYYS [PTEN_Y174_V175L] tested on MERTK (UniProt Q12866); recorded phosphorylation enrichment was 4.1

Lab note: sequence RVVVPYEPPEV [TP53_Y220_S215R] tested on MERTK (UniProt Q12866); recorded phosphorylation enrichment was 0.468

Lab note: sequence NTGDYYDLYGG [PTPN11_Y63] tested on MERTK (UniProt Q12866); recorded phosphorylation enrichment was 4.18

----------
In this section, each of the sequences is paired with its reported phosphorylation enrichment.
experimental system: Hck (UniProt P08631)
procedure details: phosphorylation enrichment, bacterial display (enrichment ratio); higher = better substrate or ligand; peptides without Tyr show the background

The sequence LLILEYAKFGS [RET_Y806_V804L_YF] showed phosphorylation enrichment equal to 0.901

The sequence PQGVRYIYTID [DCX_Y103] showed phosphorylation enrichment equal to 1.6

The sequence PGGKIYISPLK [RB1_Y805_N803K] showed phosphorylation enrichment equal to 0.456

The sequence ADFFDYGRGLS [KHDRBS3_Y304_H306R_YF] showed phosphorylation enrichment equal to 0.421

The sequence VKPENYRRPDI [VHL_Y175_L178P] showed phosphorylation enrichment equal to 0.364

The sequence LQEKSYIKGTS [LCTL_Y331] showed phosphorylation enrichment equal to 0.912

The sequence HFVDEYDLTIE [KRAS_Y32_P34L] showed phosphorylation enrichment equal to 0.749

The sequence EQLQSYQAEII [KRT33A_Y268] showed phosphorylation enrichment equal to 0.518
